assay_target: GST-Chk1 enzyme (Homo sapiens)
Sequence (O14757 whole entry): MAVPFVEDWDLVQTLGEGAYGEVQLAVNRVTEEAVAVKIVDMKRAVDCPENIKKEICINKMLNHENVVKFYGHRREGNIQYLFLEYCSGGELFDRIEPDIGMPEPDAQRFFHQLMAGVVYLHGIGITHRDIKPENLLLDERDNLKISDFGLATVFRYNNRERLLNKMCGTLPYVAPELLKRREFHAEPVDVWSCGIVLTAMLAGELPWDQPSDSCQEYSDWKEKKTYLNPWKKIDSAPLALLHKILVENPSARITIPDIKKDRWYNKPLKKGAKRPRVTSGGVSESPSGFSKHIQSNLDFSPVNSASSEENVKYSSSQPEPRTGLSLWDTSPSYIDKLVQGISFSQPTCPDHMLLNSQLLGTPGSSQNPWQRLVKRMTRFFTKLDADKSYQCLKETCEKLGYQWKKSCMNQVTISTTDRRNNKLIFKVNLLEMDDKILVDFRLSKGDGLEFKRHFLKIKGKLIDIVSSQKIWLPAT
assay_protocol: Chk1 kinase inhibition assay (33P phosphorylation of Chktide, filter plate)
Type: biochemical
protocol_conditions: 0.01 mM ATP, 11 nM GST-Chk1, 40 minutes at 30° C.; read-out: Chk1 IC50
reported_property: pIC50
Conceptually, pIC50 converts a concentration in mol/L into minus its log10.

smiles_entry | experimental_value
CN(C)S(=O)(=O)c1ccc(Nc2cc(N[C@H]3CC[C@H](N)CC3)nc3c(Cl)cnn23)cc1 | 5.70

Then this compound:
Q: Give GST-Chk1 enzyme (Homo sapiens) pIC50 for CCc1cnn2c(Nc3ccc(C(=O)NCCN(CC)CC)cc3)cc(Cl)nc12
A: 4.49

---

assay_target: PDK1 enzyme (Homo sapiens)
Sequence (O15530 whole entry): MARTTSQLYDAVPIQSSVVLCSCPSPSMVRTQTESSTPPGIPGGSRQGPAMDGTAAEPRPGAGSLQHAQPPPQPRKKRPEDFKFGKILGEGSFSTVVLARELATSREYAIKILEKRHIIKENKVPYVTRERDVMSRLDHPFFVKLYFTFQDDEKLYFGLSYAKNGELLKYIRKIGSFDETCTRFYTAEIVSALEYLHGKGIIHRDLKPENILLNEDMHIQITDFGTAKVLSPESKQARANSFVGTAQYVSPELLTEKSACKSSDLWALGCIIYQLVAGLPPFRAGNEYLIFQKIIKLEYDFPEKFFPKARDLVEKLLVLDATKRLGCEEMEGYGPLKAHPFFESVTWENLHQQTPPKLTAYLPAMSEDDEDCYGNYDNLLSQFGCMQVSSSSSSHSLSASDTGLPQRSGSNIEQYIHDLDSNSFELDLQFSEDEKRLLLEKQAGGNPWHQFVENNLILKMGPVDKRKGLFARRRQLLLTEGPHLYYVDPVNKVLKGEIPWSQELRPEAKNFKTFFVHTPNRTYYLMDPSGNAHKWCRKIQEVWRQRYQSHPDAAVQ
assay_protocol: PDK1 kinase inhibition assay (33P phosphorylation of synthetic peptide, filter plate)
Format: biochemical
protocol_conditions: 0.01 mM ATP, 60 min at 30° C.; read-out: PDK1 IC50
reported_property: pIC50
# pIC50 = -log10(concentration in molar units)

molecule | pIC50
CCc1cnn2c(Nc3ccc(S(=O)(=O)Nc4nccs4)cc3)cc(Cl)nc12 [Example 151] | 4.42
NC(=O)c1ccc(Nc2cc(N[C@H]3CC[C@@H](N)CC3)nc3c(Br)cnn23)cc1 [Example 165] | 5.92
CN(C)S(=O)(=O)c1ccc(Nc2cc(N[C@H]3CC[C@H](N)CC3)nc3c(C4CCCC4)cnn23)cc1 [Example 167] | 3.77
CC(C)c1cnn2c(Nc3ccc(S(=O)(=O)N4CCCC4)cc3)cc(N[C@H]3CC[C@H](N)CC3)nc12 [Example 62] | 5.92

Okay, now this molecule:
Q: pIC50 for CC(C)c1cnn2c(Nc3ccc(S(=O)(=O)N(C)C)cc3)cc(N[C@H]3CC[C@H](N(C)C)CC3)nc12 [Example 162] ?
A: 5.30

---

compounds and their reported pIC50
assay_target: PDK1 enzyme (Homo sapiens)
assay_protocol: PDK1 kinase inhibition assay (33P phosphorylation of synthetic peptide, filter plate)
Type: biochemical
protocol_conditions: 0.01 mM ATP, 60 min at 30° C.; read-out: PDK1 IC50
pIC50: −log10 of the molar value.

compound | assay_target | reported_property | experimental_value
CC(C)c1cnn2c(Nc3ccc(S(=O)(=O)N(C)C)cc3)cc(OCC3CCCN3C)nc12 (centres unmarked) | PDK1 enzyme (Homo sapiens) | pIC50 | < 3.70
CN(C)CCNS(=O)(=O)c1ccc(Nc2cc(Cl)nc3c(Br)cnn23)cc1 | PDK1 enzyme (Homo sapiens) | pIC50 | < 4.30
CC(C)c1cnn2c(Nc3ccc(S(=O)(=O)N(C)C)cc3)cc(C(=O)NCCN3CCOCC3)nc12 | PDK1 enzyme (Homo sapiens) | pIC50 | < 3.70
CN(C)S(=O)(=O)c1ccc(Nc2cc(Cl)nc3c(Br)cnn23)cc1 | PDK1 enzyme (Homo sapiens) | pIC50 | < 3.70

// switching to the query compound
Q: Please give the measured pIC50 for this compound: CS(=O)(=O)c1ccc(Nc2cc(OC3CCCCC3)nc3ccnn23)cc1
A: < 3.70
